pIC50: −log10 of the molar value.
The next entries give measured pIC50 for UniProtKB P42345.
Sequence (P42345 1360-2549 limits assumed): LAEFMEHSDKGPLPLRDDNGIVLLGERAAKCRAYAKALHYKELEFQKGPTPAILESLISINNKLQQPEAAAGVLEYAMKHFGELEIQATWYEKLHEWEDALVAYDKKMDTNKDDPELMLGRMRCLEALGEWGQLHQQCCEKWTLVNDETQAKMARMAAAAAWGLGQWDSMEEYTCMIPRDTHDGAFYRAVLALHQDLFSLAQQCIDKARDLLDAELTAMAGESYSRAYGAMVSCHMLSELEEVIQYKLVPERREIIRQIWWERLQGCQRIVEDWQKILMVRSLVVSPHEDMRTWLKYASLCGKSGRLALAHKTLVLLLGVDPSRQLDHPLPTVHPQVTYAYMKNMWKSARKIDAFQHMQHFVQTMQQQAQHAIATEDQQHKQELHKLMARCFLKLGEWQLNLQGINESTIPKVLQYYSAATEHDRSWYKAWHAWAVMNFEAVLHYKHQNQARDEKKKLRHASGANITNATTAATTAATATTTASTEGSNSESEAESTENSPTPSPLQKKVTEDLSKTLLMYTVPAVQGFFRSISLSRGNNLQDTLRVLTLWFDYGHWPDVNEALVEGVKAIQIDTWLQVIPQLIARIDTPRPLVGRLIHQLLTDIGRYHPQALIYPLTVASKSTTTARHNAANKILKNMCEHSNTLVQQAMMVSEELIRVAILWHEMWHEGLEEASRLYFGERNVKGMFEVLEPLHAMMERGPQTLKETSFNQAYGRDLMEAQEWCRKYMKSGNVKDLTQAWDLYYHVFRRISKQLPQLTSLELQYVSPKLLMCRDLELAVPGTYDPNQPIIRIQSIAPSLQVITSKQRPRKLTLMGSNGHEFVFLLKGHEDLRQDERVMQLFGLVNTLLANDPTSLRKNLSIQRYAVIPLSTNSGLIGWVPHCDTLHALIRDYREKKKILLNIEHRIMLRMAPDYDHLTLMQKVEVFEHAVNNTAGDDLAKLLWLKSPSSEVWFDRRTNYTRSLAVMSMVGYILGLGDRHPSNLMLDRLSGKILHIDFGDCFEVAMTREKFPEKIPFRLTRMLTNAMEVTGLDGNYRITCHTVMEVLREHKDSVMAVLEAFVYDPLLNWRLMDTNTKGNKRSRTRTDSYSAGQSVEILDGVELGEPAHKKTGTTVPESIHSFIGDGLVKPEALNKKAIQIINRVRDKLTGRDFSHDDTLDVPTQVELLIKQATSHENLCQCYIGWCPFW

Check out these entries, answers already filled in.
Lookup result for Cc1cc(-c2cnc3c(n2)N(CC2CCOCC2)C(=O)CN3)cc2[nH]c(=O)[nH]c12 [Example 238] ; measured pIC50: 6.00 to 6.30

Lookup result for O=C1CNc2ncc(-c3ccnc(O)c3)nc2N1CCC1CCOCC1 [Example 178] ; measured pIC50: 6.00 to 6.30

Lookup result for O=C1CNc2ncc(-c3ccncc3)nc2N1CCC1CCOCC1 [Example 195] ; measured pIC50: 5.00 to 6.00

***
Lookup result for CC(C)(O)c1ccc(-c2cnc3c(n2)N(C[C@@H]2CCCO2)CC(=O)N3)cn1 [Example 115] ; measured pIC50: 5.00 to 6.00
